Taken from ChEMBL document CHEMBL3421538.

Target: 5-hydroxytryptamine receptor 1A (Rattus norvegicus)
Sequence (whole entry): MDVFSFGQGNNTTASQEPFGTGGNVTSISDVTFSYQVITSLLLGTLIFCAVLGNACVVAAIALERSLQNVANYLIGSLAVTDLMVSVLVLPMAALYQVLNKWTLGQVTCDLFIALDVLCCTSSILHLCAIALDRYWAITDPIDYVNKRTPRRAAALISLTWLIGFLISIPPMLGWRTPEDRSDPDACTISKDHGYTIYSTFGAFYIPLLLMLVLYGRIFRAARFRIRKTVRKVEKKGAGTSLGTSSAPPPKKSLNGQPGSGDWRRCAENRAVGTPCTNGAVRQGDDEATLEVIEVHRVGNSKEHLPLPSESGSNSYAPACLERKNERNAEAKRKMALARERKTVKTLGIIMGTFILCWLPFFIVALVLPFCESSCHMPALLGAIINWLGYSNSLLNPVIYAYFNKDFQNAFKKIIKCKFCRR
Experiment: Displacement of [3H]8-OH-DPAT from rat hippocampus 5-HT1A receptor assessed as total radioligand binding at 1 uM incubated for 20 mins by microbeta plate reader based method
Activity reference
measurement kind: Activity (%)

smiles text: Cn1c(=O)c2c(nc3n(CCCCN4CCN(c5ccc(Cl)c(Cl)c5)CC4)c(=O)ccn23)n(C)c1=O
measurement kind: Activity
unit annotation: %
result value: 84
--
smiles text: Cc1cn2c3c(=O)n(C)c(=O)n(C)c3nc2n1CCCCN1CCN(c2ccccc2O)CC1
measurement kind: Activity
unit annotation: %
result value: 8
--
smiles text: Cn1c(=O)c2c(nc3n(CCCCCN4CCN(c5ccc(Cl)c(Cl)c5)CC4)ccn23)n(C)c1=O
measurement kind: Activity
unit annotation: %
result value: 3
--
smiles text: Cc1cccc(N2CCN(CCCCn3c(C)cn4c5c(=O)n(C)c(=O)n(C)c5nc34)CC2)c1C
measurement kind: Activity
unit annotation: %
result value: 42
--
smiles text: Cn1c(=O)c2c(nc3n(CCCCCN4CCN(c5ccccc5O)CC4)c(-c4ccccc4)cn23)n(C)c1=O
measurement kind: Activity
unit annotation: %
result value: 9
--
smiles text: Cc1cccc(N2CCN(CCCCCn3c(=O)ccn4c5c(=O)n(C)c(=O)n(C)c5nc34)CC2)c1C
measurement kind: Activity
unit annotation: %
result value: 50
--
smiles text: Cn1c(=O)c2c(nc3n(CCCCN4CCN(c5ccccc5O)CC4)c(=O)ccn23)n(C)c1=O
measurement kind: Activity
unit annotation: %
result value: 79
--
smiles text: Cn1c(=O)c2c(nc3n(CCCCN4CCN(c5ccccc5O)CC4)c(-c4ccccc4)cn23)n(C)c1=O
measurement kind: Activity
unit annotation: %
result value: 7
--
smiles text: Cc1cccc(N2CCN(CCCCn3c(=O)ccn4c5c(=O)n(C)c(=O)n(C)c5nc34)CC2)c1C
measurement kind: Activity
unit annotation: %
result value: 42
--
smiles text: CC[C@@H](CO)NC(=O)[C@@H]1C=C2c3cccc4c3c(cn4C)C[C@H]2N(C)C1
measurement kind: Activity
unit annotation: %
result value: 11
--
smiles text: Cn1c(=O)c2c(nc3n(CCCCN4CCN(c5ccccc5O)CC4)ccn23)n(C)c1=O
measurement kind: Activity
unit annotation: %
result value: 7
--
smiles text: Cc1cccc(N2CCN(CCCCn3ccn4c5c(=O)n(C)c(=O)n(C)c5nc34)CC2)c1C
measurement kind: Activity
unit annotation: %
result value: 9
--
smiles text: Cn1c(=O)c2c(nc3n(CCCCN4CCN(c5ccc(Cl)c(Cl)c5)CC4)ccn23)n(C)c1=O
measurement kind: Activity
unit annotation: %
result value: 9
--
smiles text: Cc1cn2c3c(=O)n(C)c(=O)n(C)c3nc2n1CCCCCN1CCN(c2ccccc2O)CC1
measurement kind: Activity
unit annotation: %
result value: 0
--
smiles text: Cc1cn2c3c(=O)n(C)c(=O)n(C)c3nc2n1CCCCN1CCN(c2ccc(Cl)c(Cl)c2)CC1
measurement kind: Activity
unit annotation: %
result value: 13
--
smiles text: Cn1c(=O)c2c(nc3n(CCCCCN4CCN(c5ccccc5O)CC4)ccn23)n(C)c1=O
measurement kind: Activity
unit annotation: %
result value: 0
--
smiles text: Cn1c(=O)c2c(nc3n(CCCCCN4CCN(c5ccc(Cl)c(Cl)c5)CC4)c(=O)ccn23)n(C)c1=O
measurement kind: Activity
unit annotation: %
result value: 52
